test: Encapsulation efficiency of lipid nanoparticles, Quant-it Ribogreen RNA assay; assay type: physicochemical; conditions: LNP of lipid/DSPC/cholesterol/PEG-lipid 50:10:38.5:1.5 encapsulating hEPO mRNA
Encapsulation Efficiency values, listed per item
Note: a bare number is incomplete; add the unit.

compound	result
CCCCCCCCC(CCCCCC)COC(=O)CCCCCN(CCO)CCN(CCCCC(COC(=O)CCCCCCC)COC(=O)CCCCCCC)C1CCCCC1 (stereo not drawn) [Compound 139]	87.81%
CCCCCCCCC(CCCCCCCC)CC(=O)NCCCCCN(CCN(CCO)CCCCCCOC(=O)C(CCCCCC)CCCCCCCC)C1CCC1 (stereo not drawn) [Compound 70]	91.32%
CCCCCCCCCCCC(=O)OCCCCCN(CCN(CCO)CCCCCOC(=O)CC(CCCCCCCC)CCCCCCCC)C1CCC1 [Compound 92]	91.34%

Dear colleague, I am looking for the recorded Encapsulation Efficiency of the following compound: CCCCCCCCC(CCCCCCCC)CNC(=O)CCCCCN(CCO)CCN(CCCCCC(=O)NCC(CCCCCCCC)CCCCCCCC)C1CCCCCC1 [Compound 14] 89.8%

# iterate: CCCCCCCCCCCC(=O)OCCCCCN(CCN(CCO)CCCCCOC(=O)CC(CCCCCCCC)CCCCCCCC)C1CC1 [Compound 91] 87.92%

Moving on to CCCCCCCCCCCOC(=O)CCCCCN(CCN(CCO)CCCCCC(=O)OCC(CCCCCCCC)CCCCCCCC)C1CCCCC1 [Compound 21] 92.3%
